# System: U2OS
# Run Description: cell viability relative to DMSO; higher = less toxic
# Run Parameters: 72 h; 100 nM
Measured cell viability, listed per entry.
Dear colleague, please return just the value in %, with no unit written.

{"Molecule": "CCNC(=O)CCC/C=C\\C[C@@H]1[C@@H](/C=C/[C@@H](O)CCc2ccccc2)[C@H](O)C[C@@H]1O", "Target Desc": "U2OS", "cell viability (%)": 103}

May I ask what cell viability has been recorded for `Nc1c(CC(=O)O)cccc1C(=O)c1ccccc1` ? 102

May I ask what cell viability has been recorded for `CC(=O)OCC1=C(C(=O)O)N2C(=O)[C@@H](NC(=O)CSc3ccncc3)[C@H]2SC1` ? 93.8

May I ask what cell viability has been recorded for `Cc1ccc(CC2(O)CCN(CCOc3ccc(O)cc3)CC2)cc1` ? 97.8

May I ask what cell viability has been recorded for `OC[C@H]1NC[C@@H](O)[C@@H](O)[C@@H]1O` ? 95.8

May I ask what cell viability has been recorded for CCN(CC)CCNC(=O)c1ccc(N)cc1 [procainamide] ? 98.8

May I ask what cell viability has been recorded for `COc1cc2c(Oc3ccc4[nH]c(C)cc4c3F)ccnc2cc1OCC1(N)CC1` ? 96.9

May I ask what cell viability has been recorded for CCOC(=O)[C@@](C)(N)Cc1ccc(O)c(O)c1 [methyldopate] ? 101
